B1: KLHDC10 (parent)
chain: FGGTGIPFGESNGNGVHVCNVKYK

Variants of: B1
METHOD_DESCRIPTION: protein stability index of a GFP-peptide fusion (GPS, HEK-293T) (PSI 1-6); higher = more stable;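 further: lentivirally expressed fusions sorted by FACS into six bins by GFP to DsRed ratio, PSI derived from sequencing read proportions per bin multiplied by bin number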
TEST_PARAMETERS: c terminus: a fixed tail appended

| SEQUENCE_CODE | protein stability index |
| --- | --- |
| FGGTGIPFGSSNGNGVHVCNVKYK [E10S] | 3.04 |
| FGGTGIPFEESNGNGVHVCNVKYK [G9E] | 3.16 |
| FGGTGIYFGESNGNGVHVCNVKYK [P7Y] | 2.5 |
| FGGTGIPFGESNGNGVHDCNVKYK [V18D] | 3.08 |
| FGGTGIPFGESNGNGVHVCNVKYH [K24H] | 1.57 |
| FGGTGIPFGETNGNGVHVCNVKYK [S11T] | 1.96 |
| FGGTGIPFGESNGNEVHVCNVKYK [G15E] | 2.34 |
| FGGTLIPFGESNGNGVHVCNVKYK [G5L] | 1.89 |
| FGGTGIPFGESNGNQVHVCNVKYK [G15Q] | 1.78 |
| FGGTGIPFGESNVNGVHVCNVKYK [G13V] | 2.17 |
| FGGTGIPFGESNGNGVHVCQVKYK [N20Q] | 1.87 |
| FGGTGIPFGESNGNGVHVCNVDYK [K22D] | 2.35 |
| FGGTGIPFGESNGNGVVVCNVKYK [H17V] | 2.32 |
| FGGTGIPFGESNGNGVHVCNYKYK [V21Y] | 2.5 |
| FGGTGIPFGESNGNGVHVCNVKYY [K24Y] | 1.88 |
| LGGTGIPFGESNGNGVHVCNVKYK [F1L] | 4.04 |
| FGGTGTPFGESNGNGVHVCNVKYK [I6T] | 1.84 |
| FGGTGIPFGESNGNGVHVCNVKDK [Y23D] | 3.3 |
| FGGTGIPFGESNGNGVHECNVKYK [V18E] | 2.75 |
| FGGTGIPFGESEGNGVHVCNVKYK [N12E] | 2.11 |
| FGGTGIPFGEGNGNGVHVCNVKYK [S11G] | 1.54 |
| FGGTGIPFGESQGNGVHVCNVKYK [N12Q] | 2.06 |
